Assignment: determine reported IC50 for the given compounds.
System: IL-4 induced STAT6 phosphorylation in THP-1 human monocytic cells
Test: Cellular JAK potency assay, THP-1
Settings: Homo sapiens, THP-1, read-out: THP-1 IL4 pIC50 (converted)

Name the recorded IC50 for Cc1cc(Nc2cc3ncccc3c(N[C@@H]3C[C@H]4CC[C@@H](C3)N4Cc3cccc(O)c3)n2)n[nH]1 [Example 1-19] .
31.6 to 200 nM

// IC50 lookup, key: Cc1cc(Nc2cc3nc(CN4CCOCC4)ccc3c(N[C@@H]3C[C@H]4CC[C@@H](C3)N4S(C)(=O)=O)n2)n[nH]1 [Example 5-15]
31.6 to 200 nM

# input compound: Cc1cc(Nc2cc3ncccc3c(N[C@@H]3C[C@H]4CC[C@@H](C3)N4S(=O)(=O)N3CC(C#N)C3)n2)n[nH]1 [Example 13] ; wanted: its IC50
31.6 to 200 nM

I would be grateful if you could share the reported IC50 for Cc1cc(Nc2cc3ncccc3c(N[C@@H]3C[C@H]4CCC[C@@H](C3)N4S(=O)(=O)N3CC(C#N)C3)n2)n[nH]1 [Example 11] .
31.6 to 200 nM

So what does the record say about IC50 for Cc1cc(Nc2cc3ncccc3c(N[C@@H]3C[C@H]4CCC[C@@H](C3)N4S(=O)(=O)c3cccnc3)n2)n[nH]1 [Example 8] ?
< 31.6 nM

Endpoint output: IC50 of Cc1cc(Nc2cc3nc(CN4CCC(F)(F)CC4)ccc3c(N[C@@H]3C[C@H]4CC[C@@H](C3)N4CC(F)(F)F)n2)n[nH]1 [Example 5-33] . Value?
31.6 to 200 nM

* * *

Experiment: Pharmacokinetics in plasma and the GI tract in dogs
Type: in vivo
Settings: male, beagle, GI tissue (duodenum, ileum, cecum, colon) and plasma; dog, 5 mg/kg oral, 6 hours post dose; read-out: ratio of concentration in GI tissue to plasma
Experimental endpoint: Kp at 6 hours

Fill in the blank: the reported Kp at 6 hours of `Cc1cc(Nc2cc3ncccc3c(N[C@@H]3C[C@H]4CC[C@@H](C3)N4CCC#N)n2)n[nH]1` is ____.
9 to 165

* * *

Biological target: Tyk2 (Homo sapiens (Human))
Assay: LanthaScreen JAK biochemical assay (Tyk2)
Settings: read-out: Tyk 2 (pKi) (converted)
Exercise: state measured Ki for each of the compounds provided.

Would you mind telling me what Ki value was observed for `COC(=O)c1cnc2cc(Nc3cc(C)[nH]n3)nc(N[C@@H]3C[C@H]4CC[C@@H](C3)N4S(C)(=O)=O)c2c1` ?
0.1 to 1 nM

Value lookup for Ki; key = `Cc1cnc2cc(Nc3cc(C)[nH]n3)nc(N[C@@H]3C[C@H]4CC[C@@H](C3)N4S(=O)(=O)N3CC(C#N)C3)c2c1`
0.1 to 1 nM

Fill blank: measured Ki of the compound Cc1cc(Nc2cc3ncccc3c(N[C@@H]3C[C@H]4CC[C@@H](C3)N4C3CCCOC3=O)n2)n[nH]1 (stereo partly drawn) is ____.
1 to 100 nM

// Ki lookup, key: `COc1ccc2c(N[C@@H]3C[C@H]4CC[C@@H](C3)N4S(C)(=O)=O)nc(Nc3cc(C)[nH]n3)cc2n1`
0.1 to 1 nM

// returns reported Ki for input `Cc1cc(Nc2cc3nc(CN4CCN(C)CC4)ccc3c(N[C@@H]3C[C@H]4CC[C@@H](C3)N4S(=O)(=O)N3CCC3)n2)n[nH]1`
0.1 to 1 nM

Using the record for `Cc1cc(Nc2cc3nc(CO)ccc3c(N[C@@H]3C[C@H]4CC[C@@H](C3)N4S(C)(=O)=O)n2)n[nH]1` , report its Ki.
0.1 to 1 nM

* * *

Biological target: Tyk2 (Homo sapiens (Human), UniProt P29597)
Sequence (P29597 whole entry): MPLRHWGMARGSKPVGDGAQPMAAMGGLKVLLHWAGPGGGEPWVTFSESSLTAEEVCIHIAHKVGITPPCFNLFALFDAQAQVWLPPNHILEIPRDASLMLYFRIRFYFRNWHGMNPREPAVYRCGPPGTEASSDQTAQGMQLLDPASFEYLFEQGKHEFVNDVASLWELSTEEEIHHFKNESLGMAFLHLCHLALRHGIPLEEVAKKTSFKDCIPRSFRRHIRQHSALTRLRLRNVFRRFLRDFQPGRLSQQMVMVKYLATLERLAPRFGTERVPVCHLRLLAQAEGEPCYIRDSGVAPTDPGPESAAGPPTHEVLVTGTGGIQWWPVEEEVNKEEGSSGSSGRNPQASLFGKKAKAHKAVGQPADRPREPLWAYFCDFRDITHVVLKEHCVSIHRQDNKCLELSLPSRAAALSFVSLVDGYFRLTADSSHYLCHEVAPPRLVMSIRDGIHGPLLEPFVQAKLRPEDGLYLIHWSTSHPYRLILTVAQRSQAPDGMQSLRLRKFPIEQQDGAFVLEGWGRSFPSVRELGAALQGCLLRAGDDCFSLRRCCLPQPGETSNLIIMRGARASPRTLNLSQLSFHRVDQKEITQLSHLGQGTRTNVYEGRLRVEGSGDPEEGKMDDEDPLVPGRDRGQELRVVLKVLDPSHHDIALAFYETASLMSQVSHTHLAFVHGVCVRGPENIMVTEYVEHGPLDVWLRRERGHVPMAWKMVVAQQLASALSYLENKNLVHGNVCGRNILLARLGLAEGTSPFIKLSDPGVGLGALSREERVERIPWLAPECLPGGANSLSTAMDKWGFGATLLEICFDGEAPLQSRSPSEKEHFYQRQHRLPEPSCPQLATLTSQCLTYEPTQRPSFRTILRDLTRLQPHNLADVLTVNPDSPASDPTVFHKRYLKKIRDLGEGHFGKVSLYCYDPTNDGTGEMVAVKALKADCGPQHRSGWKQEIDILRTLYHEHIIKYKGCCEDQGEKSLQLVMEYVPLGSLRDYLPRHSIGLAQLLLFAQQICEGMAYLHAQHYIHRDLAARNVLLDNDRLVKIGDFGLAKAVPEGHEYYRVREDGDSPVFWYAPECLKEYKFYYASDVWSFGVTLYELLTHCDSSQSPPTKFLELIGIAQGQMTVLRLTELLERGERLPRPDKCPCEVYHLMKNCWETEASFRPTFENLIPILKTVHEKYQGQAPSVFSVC
Assay: LanthaScreen JAK biochemical assay (Tyk2)
Settings: read-out: Tyk 2 (pKi) (converted)
Can you tell me Ki for the items I'm about to list?

Fill blank: measured Ki of the compound `CCS(=O)(=O)N1[C@@H]2CC[C@H]1C[C@H](Nc1nc(Nc3cc(C)[nH]n3)cc3ncc(C(=O)OC)cc13)C2` is ____.
0.1 to 1 nM

Name the reported Ki value associated with the compound `Cc1cc(Nc2cc3ncccc3c(N[C@@H]3C[C@H]4CC[C@@H](C3)N4CC3(C#N)CC3)n2)n[nH]1`
0.1 to 1 nM

What does the data say about its Ki? Entry: `Cc1cc(Nc2cc3ncccc3c(N[C@@H]3C[C@H]4CC[C@@H](C3)N4C(=O)CF)n2)n[nH]1`
1 to 100 nM

Can you look up the measured Ki of `Cc1cc(Nc2cc3ncccc3c(N[C@@H]3C[C@H]4CCC[C@@H](C3)N4S(=O)(=O)c3ccccc3)n2)n[nH]1` for me?
0.1 to 1 nM

* * *

Please respond with reported bioavailability for every item in the list.
Assay: Determination of absorption in cannulated rats
Type: in vivo
Conditions: rat, plasma (jugular vein); Sprague Dawley rats, oral vs IV, jugular vein; read-out: oral bioavailability (F %)

# input molecule: Cc1cc(Nc2cc3ncccc3c(N[C@@H]3C[C@H]4CCC[C@@H](C3)N4S(=O)(=O)c3cccnc3)n2)n[nH]1 [Example 8] ; wanted: its bioavailability
< 5%

Consider the molecule Cc1cc(Nc2cc3nc(CO)ccc3c(N[C@@H]3C[C@H]4CC[C@@H](C3)N4C(=O)OCC(C)C)n2)n[nH]1 [Example 12] and give its measured bioavailability.
< 5%

* * *

Tested on: IL-4 induced STAT6 phosphorylation in THP-1 human monocytic cells
Test: Cellular JAK potency assay, THP-1
Settings: Homo sapiens, THP-1, read-out: THP-1 IL4 pIC50 (converted)
Experimental endpoint: IC50

Value lookup for IC50; key = CCN1CC(S(=O)(=O)N2[C@@H]3CC[C@H]2C[C@H](Nc2nc(Nc4cc(C)[nH]n4)cc4ncccc24)C3)C1 [Example 4-10]
31.6 to 200 nM

I would be grateful if you could share the reported IC50 for Cc1cc(Nc2cc3ncccc3c(N[C@@H]3C[C@H]4CC[C@@H](C3)N4S(=O)(=O)N3CCC3)n2)n[nH]1 [Example 4-6] .
< 31.6 nM

Give its IC50 value. Item: Cc1cc(Nc2cc3ncccc3c(N[C@@H]3C[C@H]4CC[C@@H](C3)N4S(=O)(=O)C3CC3)n2)n[nH]1 [Example 4-4]
< 31.6 nM

Which IC50 is listed for Cc1cc(Nc2cc3ncccc3c(N[C@@H]3C[C@H]4CC[C@@H](C3)N4C(=O)c3cccnc3)n2)n[nH]1 [Example 2-14] ?
> 200 nM

* * *

System: IL-4 induced STAT6 phosphorylation in THP-1 human monocytic cells
Experiment: Cellular JAK potency assay, THP-1
Details: Homo sapiens, THP-1, read-out: THP-1 IL4 pIC50 (converted)
So I've got a bunch of molecules here, and I need their IC50 values.

// lookup IC50 for Cc1cc(Nc2cc3ncccc3c(N[C@@H]3C[C@H]4CCC[C@@H](C3)N4C(=O)CN(C)C)n2)n[nH]1 [Example 4]
31.6 to 200 nM

Which IC50 reading was recorded for the molecule COC(=O)C1(C(=O)N2[C@@H]3CC[C@H]2C[C@H](Nc2nc(Nc4cc(C)[nH]n4)cc4ncccc24)C3)CC1 [Example 2-9] ?
> 200 nM

Which value of IC50 has been reported for Cc1cnc2cc(Nc3cc(C)[nH]n3)nc(N[C@@H]3C[C@H]4CC[C@@H](C3)N4S(=O)(=O)N3CC(C#N)C3)c2c1 [Example 6-4] in the records?
< 31.6 nM

Item COC(=O)c1cnc2cc(Nc3cc(C)[nH]n3)nc(N[C@@H]3C[C@H]4CC[C@@H](C3)N4C3CCOC3=O)c2c1 (stereo partly drawn) [Example 6-35] has what recorded IC50?
31.6 to 200 nM

Entry Cc1cc(Nc2cc3nc(CN4CCN(C)CC4)ccc3c(N[C@@H]3C[C@H]4CC[C@@H](C3)N4S(=O)(=O)N3CCC3)n2)n[nH]1 [Example 5-39] : reported IC50 = ?
31.6 to 200 nM

So what does the record say about IC50 for Cc1cc(Nc2cc3nc(CN4CCN(C)CC4)ccc3c(N[C@@H]3C[C@H]4CC[C@@H](C3)N4S(=O)(=O)c3cncc(F)c3)n2)n[nH]1 [Example 5-40] ?
31.6 to 200 nM

* * *

Tested on: IL-4 induced STAT6 phosphorylation in THP-1 human monocytic cells
Experiment: Cellular JAK potency assay, THP-1
Conditions: Homo sapiens, THP-1, read-out: THP-1 IL4 pIC50 (converted)
Consider the following compounds; for each one, report its IC50.

Would you kindly share the measured IC50 for `Cc1cc(Nc2cc3ncccc3c(N[C@@H]3C[C@H]4CC[C@@H](C3)N4C(=O)C3(C)CCCC3)n2)n[nH]1` ?
31.6 to 200 nM

Given the compound COCC1CCCN1S(=O)(=O)N1[C@@H]2CC[C@H]1C[C@H](Nc1nc(Nc3cc(C)[nH]n3)cc3ncccc13)C2 (stereo partly shown) , what is its reported IC50?
31.6 to 200 nM

Which IC50 is reported for this compound? `Cc1cc(Nc2cc3ncccc3c(N[C@@H]3C[C@H]4CC[C@@H](C3)N4S(=O)(=O)c3ccccn3)n2)n[nH]1`
31.6 to 200 nM

Data request, read-out IC50, for `Cc1cc(Nc2cc3ncccc3c(N[C@@H]3C[C@H]4CC[C@@H](C3)N4S(=O)(=O)C3CN(CCC#N)C3)n2)n[nH]1`
> 200 nM
